Provenance of the data: the Human Domainome abundance scans (Beltran et al. 2025)

Provide the recorded abundance fitness for the entries that follow.
B1: Far upstream element-binding protein 2, residues 142 to 214; numbered along this chain, Q92945 (parent)
chain: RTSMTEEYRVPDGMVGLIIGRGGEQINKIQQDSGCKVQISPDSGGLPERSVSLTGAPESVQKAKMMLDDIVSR

Variants of: B1
Assay: abundance fitness (aPCA) (normalised: wild type 0, dead -1); higher = more abundant; growth selection in yeast, the domain comes from the species named
Details: Homo sapiens
Lab note: record the figure alone, no unit after it.

Kindly note the recorded abundance fitness for "K62W" , which is -0.541

Kindly note the recorded abundance fitness for "S40R" , which is -0.029

Kindly note the recorded abundance fitness for "I29P" , which is -0.849

Kindly note the recorded abundance fitness for "Q61F" , which is -0.106

Kindly note the recorded abundance fitness for "G55V" , which is -1.17

Kindly note the recorded abundance fitness for "L46W" , which is -0.171

Kindly note the recorded abundance fitness for "G23Y" , which is -0.393

Kindly note the recorded abundance fitness for "D68A" , which is -0.188

Kindly note the recorded abundance fitness for "P47S" , which is -0.021

Kindly note the recorded abundance fitness for "T54Q" , which is -0.158

Kindly note the recorded abundance fitness for "D42G" , which is -0.097

Kindly note the recorded abundance fitness for "D68M" , which is -0.337

Kindly note the recorded abundance fitness for "G23W" , which is -0.32

Kindly note the recorded abundance fitness for "D68W" , which is -0.62

Kindly note the recorded abundance fitness for "R73V" , which is -0.074

Kindly note the recorded abundance fitness for "I70T" , which is -0.344

Kindly note the recorded abundance fitness for "C35D" , which is -0.564

Kindly note the recorded abundance fitness for "K28A" , which is -0.144

Kindly note the recorded abundance fitness for "A56I" , which is -0.126

Kindly note the recorded abundance fitness for "K36I" , which is -0.095

Kindly note the recorded abundance fitness for "Q31I" , which is -0.135

Kindly note the recorded abundance fitness for "I26V" , which is -0.146

Kindly note the recorded abundance fitness for "E48M" , which is -0.047

Kindly note the recorded abundance fitness for "Q25V" , which is -0.019

Kindly note the recorded abundance fitness for "P47E" , which is -0.06

Kindly note the recorded abundance fitness for "S72F" , which is -0.176

Kindly note the recorded abundance fitness for "Q38C" , which is -0.019
